# Tested on: S. aureus 10390
# protocol description: Time-dependent bacterial killing curves
# Format: cell-based, Staphylococcus aureus
# condition parameters: 0.5x to 4x MIC, 0-6 h
# Experimental: Solutions of compounds 4Bv, 6Ao, 9Cf, and linezolid were prepared in DMSO over a range of concentrations. […] At 0, 2, 4, and 6 h time points, […] samples were withdrawn from the test tubes, diluted into 10 mL of LB broth in a test tube, and swabbed in duplicate on agar plates to determine CFUs. These plates were incubated at 37° C. for 24 h, after which time the colonies were counted visually. […] Instead, 200 μL was removed from the test tube and directly swabbed on the agar plates.
measured metric: mode of activity (bacteriostatic or bactericidal)

molecule="CC(=O)NC[C@H]1CN(c2ccc(N3CCOCC3)c(F)c2)C(=O)O1 [Linezolid, linezolid, reference compound]" system_tested="S. aureus 10390" obs_value=bacteriostatic
molecule=O=C(/C=C/c1cc(C(F)(F)F)cc(C(F)(F)F)c1)c1cccc(O)c1 system_tested="S. aureus 10390" obs_value=bacteriostatic
molecule=COc1cc(-c2cc(-c3ccc(Br)cc3)nc(C)n2)ccc1O system_tested="S. aureus 10390" obs_value=bacteriostatic
